Can you tell me protein stability index for the items I'm about to list?
B1: WSB1 (parent)
chain: DLKDDGNMMKVLRGHQNWVYSCAF

# Variants of: B1
# assay: protein stability index of a GFP-peptide fusion (GPS, HEK-293T) (PSI 1-6); higher = more stable;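 also: lentivirally expressed fusions sorted by FACS into six bins by GFP to DsRed ratio, PSI derived from sequencing read proportions per bin multiplied by bin number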
# runParameters: c terminus: a fixed tail appended
Give bare numbers.

L12Y    2.74
M9Q    1.73
Q16V    1.52
L2V    1.29
S21D    2.05
N7D    2.58
N7T    1.47
C22Y    1.72

Hi, could you look up protein stability index for each item in my list?
1. D1V
2. K3E

OUT:
[1.89, 1.9]

Parameter requested: protein stability index. Apply to each item below.
1. A23H
2. D1P
3. Q16Y
4. G6L
5. N7H

OUT:
1.75
1.59
1.4
1.13
1.62
